tested on: CCRF-CEM; experiment: NCI-60 cell line panel: CCRF-CEM; assay type: cell-based; conditions: Homo sapiens, Leukemia
pIC50: −log10 of the molar value.
Returns one of Satisfied or Not satisfied; Satisfied when pIC50 is >= 6.

Look over these answered cases.
CCN1CCN(c2ccc(NC(=O)Nc3ccc(-c4cc(C(=O)NC)c5ncccc5n4)cc3)cc2C(F)(F)F)CC1 [Compound 13c] = Satisfied
CNC(=O)c1cc(-c2ccc(NC(=O)Nc3ccc(N4CCN(C)CC4)c(C(F)(F)F)c3)cc2)nc2cccnc12 [Compound 13b] = Not satisfied

From here, focus on the item given below.
Query block: Check this molecule for pIC50 at or above 6: CNC(=O)c1cc(Oc2ccc(NC(=O)Nc3ccc(Cl)c(C(F)(F)F)c3)cc2)ccn1 [Sorafenib, reference compound]
Result block: Not satisfied
